Recorded measurements of Ratio, one per entry
- System: Canis familiaris
- Assay summary: Increase in heart rate in iv dosed anesthetized mongrel dog relative to l-isoproterenol
- Type: organism-based, Canis lupus familiaris
- Particulars: in vivo
When you answer, write just the number.

Worked cases, Ratio given:
[[record]]
compound = "CC[C@@H](NC(C)C)[C@H](O)c1ccc(O)c2[nH]c(=O)ccc12"
number = 7560

[[record]]
compound = "CCC(NC(C)C)C(O)c1ccc(O)c2[nH]c(=O)ccc12 (racemic; erythro) [PROCATEROL]"
number = 50.5

[[record]]
compound = "CCC(NC(C)C)C(O)c1ccc(O)c2[nH]c(=O)ccc12 (stereo in doubt) [PROCATEROL]"
number = 33.2


--- query ---
QUERY: Look up Ratio: CC[C@H](NC(C)C)[C@@H](O)c1ccc(O)c2[nH]c(=O)ccc12
RESULT: 9550
